Data provenance: patent US20250275953A1

assay: Plasma pharmacokinetics, Parkinson's disease patients, once daily for 14 days; type: in vivo, human; conditions: human, oral, 192 mg, Day 1, plasma, PD patients
test-readout: Cmax (ng/mL)

structure_smiles=Cc1ccc(C(=O)NNC(=O)c2c(C)cccc2Cl)cc1C#Cc1cnc2ccccc2c1 test_readout=Cmax reported_result=1530

====

assay: Plasma pharmacokinetics, Parkinson's disease patients, once daily for 14 days; format: in vivo, human; settings: human, 96 mg, PD patients, read-out: AUC Over Dosing Interval Mean
test-readout: AUC (ng·h/mL)

structure_smiles=Cc1ccc(C(=O)NNC(=O)c2c(C)cccc2Cl)cc1C#Cc1cnc2ccccc2c1 test_readout=AUC unit_abbreviation=ng·h/mL reported_result=17100

====

experiment: Plasma pharmacokinetics, 7 once-daily oral doses, healthy volunteers; assay type: in vivo, human; details: male, human, plasma, oral, 384 mg, Day 7, plasma, Healthy Subjects, Table 10; read-out: Tmax median (range)
test-readout: Tmax (h)

structure_smiles=Cc1ccc(C(=O)NNC(=O)c2c(C)cccc2Cl)cc1C#Cc1cnc2ccccc2c1 reported_result=3.5

====

Assay: Plasma pharmacokinetics, Parkinson's disease patients, once daily for 14 days
Assay type: in vivo, human
Settings: human, oral, 48 mg, Day 14, plasma, PD patients, read-out: AUC0-24 Mean
Description: Of these, 44 subjects completed the study. An additional 10 subjects were enrolled in the open label part of the study, of these, one subject was discontinued due to an AE of vomiting. […] Vodobatinib levels in plasma and CSF were determined using a fully validated LC-MS/MS assay with lower limits of quantitation (LLOQ) of 2.5 ng/mL and 0.05 ng/mL, respectively. […]
test-readout: AUC(0-t) (ng·h/mL)

structure_smiles=Cc1ccc(C(=O)NNC(=O)c2c(C)cccc2Cl)cc1C#Cc1cnc2ccccc2c1 test_readout=AUC(0-t) reported_result=7910

====

assay: Plasma pharmacokinetics, Parkinson's disease patients, once daily for 14 days; type: in vivo, human; conditions: human, oral, 384 mg, Day 14, plasma, PD patients, read-out: Tmax median (range)
test-readout: Tmax (h)

structure_smiles=Cc1ccc(C(=O)NNC(=O)c2c(C)cccc2Cl)cc1C#Cc1cnc2ccccc2c1 test_readout=Tmax unit_abbreviation=h reported_result=1

====

assay: Plasma pharmacokinetics, Parkinson's disease patients, once daily for 14 days; type: in vivo, human; details: human, 96 mg, PD patients, read-out: Half-Life Lambda Z Geo. Mean (converted)
test-readout: half-life (h)

structure_smiles=Cc1ccc(C(=O)NNC(=O)c2c(C)cccc2Cl)cc1C#Cc1cnc2ccccc2c1 reported_result=13.2

====

test: Plasma pharmacokinetics, Parkinson's disease patients, once daily for 14 days; type: in vivo, human; settings: human, 192 mg, PD patients, read-out: AUC Over Dosing Interval Geo. Mean
test-readout: AUC (ng·h/mL)

structure_smiles=Cc1ccc(C(=O)NNC(=O)c2c(C)cccc2Cl)cc1C#Cc1cnc2ccccc2c1 reported_result=27600

====

assay: Plasma pharmacokinetics, 7 once-daily oral doses, healthy volunteers; format: in vivo, human; conditions: male, human, plasma, oral, 192 mg, Day 7, plasma, healthy volunteers; read-out: AUC0-24 AM
test-readout: AUC(0-t) (ng·h/mL)

structure_smiles=Cc1ccc(C(=O)NNC(=O)c2c(C)cccc2Cl)cc1C#Cc1cnc2ccccc2c1 reported_result=44100

====

target: Abl (Y253F) (Homo sapiens, UniProt P00519, Y253F); test: Biochemical kinase assay, mutant Abl
test-readout: IC50 (nM)

structure_smiles=Cc1ccc(C(=O)NNC(=O)c2c(C)cccc2Cl)cc1C#Cc1cnc2ccccc2c1 reported_result=1

====

Assay: Plasma pharmacokinetics, Parkinson's disease patients, once daily for 14 days
Assay type: in vivo, human
Settings: human, 96 mg, PD patients, read-out: Half-Life Lambda Z Median (converted)
Procedure: Of these, 44 subjects completed the study. An additional 10 subjects were enrolled in the open label part of the study, of these, one subject was discontinued due to an AE of vomiting. […] Vodobatinib levels in plasma and CSF were determined using a fully validated LC-MS/MS assay with lower limits of quantitation (LLOQ) of 2.5 ng/mL and 0.05 ng/mL, respectively. […]
test-readout: half-life (h)

structure_smiles=Cc1ccc(C(=O)NNC(=O)c2c(C)cccc2Cl)cc1C#Cc1cnc2ccccc2c1 reported_result=15.5

====

assay: Plasma pharmacokinetics, Parkinson's disease patients, once daily for 14 days; type: in vivo, human; details: human, 24 mg, PD patients, read-out: Half-Life Lambda Z Geo. Mean (converted)
test-readout: half-life (h)

structure_smiles=Cc1ccc(C(=O)NNC(=O)c2c(C)cccc2Cl)cc1C#Cc1cnc2ccccc2c1 reported_result=10.5

====

assay: Plasma pharmacokinetics, 7 once-daily oral doses, healthy volunteers; assay type: in vivo, human; conditions: male, human, plasma, oral, 48 mg, Day 1, plasma, Healthy Subjects; read-out: AUC0-24 Mean
test-readout: AUC(0-t)

structure_smiles=Cc1ccc(C(=O)NNC(=O)c2c(C)cccc2Cl)cc1C#Cc1cnc2ccccc2c1 reported_result="8870 ng·h/mL"

====

assay: Plasma pharmacokinetics, Parkinson's disease patients, once daily for 14 days; assay type: in vivo, human; settings: human, oral, 24 mg, Day 1, plasma, PD patients, read-out: AUC0-24 Mean
test-readout: AUC(0-t) (ng·h/mL)

structure_smiles=Cc1ccc(C(=O)NNC(=O)c2c(C)cccc2Cl)cc1C#Cc1cnc2ccccc2c1 reported_result=2690

====

assay: Plasma pharmacokinetics, Parkinson's disease patients, once daily for 14 days; assay type: in vivo, human; settings: human, oral, 384 mg, Day 14, plasma, PD patients, read-out: AUC0-24 Mean
test-readout: AUC(0-t) (ng·h/mL)

structure_smiles=Cc1ccc(C(=O)NNC(=O)c2c(C)cccc2Cl)cc1C#Cc1cnc2ccccc2c1 unit_abbreviation=ng·h/mL reported_result=43500

====

test: Plasma pharmacokinetics, Parkinson's disease patients, once daily for 14 days; type: in vivo, human; settings: human, oral, 18 mg, Day 14, plasma, PD patients, read-out: AUC0-24 Mean
test-readout: AUC(0-t) (ng·h/mL)

structure_smiles=Cc1ccc(C(=O)NNC(=O)c2c(C)cccc2Cl)cc1C#Cc1cnc2ccccc2c1 test_readout=AUC(0-t) unit_abbreviation=ng·h/mL reported_result=3370

====

assay: Plasma pharmacokinetics, 7 once-daily oral doses, healthy volunteers; assay type: in vivo, human; settings: male, human, plasma, oral, 48 mg, Day 7, plasma, healthy volunteers; read-out: Tmax Min, Max
test-readout: Tmax

structure_smiles=Cc1ccc(C(=O)NNC(=O)c2c(C)cccc2Cl)cc1C#Cc1cnc2ccccc2c1 reported_result="1.5 to 12 h"

====

experiment: CSF pharmacokinetics on Day 7, healthy volunteers; type: in vivo, human; details: male, human, CSF, oral, 192 mg, Day 7, CSF, healthy volunteers; read-out: CSF Tmax Min, Max
test-readout: Tmax

structure_smiles=Cc1ccc(C(=O)NNC(=O)c2c(C)cccc2Cl)cc1C#Cc1cnc2ccccc2c1 test_readout=Tmax reported_result="2.03 to 6.01 h"

====

experiment: Plasma pharmacokinetics, 7 once-daily oral doses, healthy volunteers; assay type: in vivo, human; settings: male, human, plasma, oral, 384 mg, Day 1, plasma, healthy volunteers; read-out: AUC0-24 Median
test-readout: AUC(0-t) (ng·h/mL)

structure_smiles=Cc1ccc(C(=O)NNC(=O)c2c(C)cccc2Cl)cc1C#Cc1cnc2ccccc2c1 reported_result=41900

====

assay: Plasma pharmacokinetics, 7 once-daily oral doses, healthy volunteers; format: in vivo, human; conditions: male, human, plasma, oral, 48 mg, Day 7, plasma, healthy volunteers; read-out: Cmax AM
test-readout: Cmax (ng/mL)

structure_smiles=Cc1ccc(C(=O)NNC(=O)c2c(C)cccc2Cl)cc1C#Cc1cnc2ccccc2c1 reported_result=1400

====

Assay: Plasma pharmacokinetics, 7 once-daily oral doses, healthy volunteers
Assay type: in vivo, human
Settings: male, human, plasma, oral, 384 mg, Day 1, plasma, Healthy Subjects, Table 10; read-out: Cmax Mean
Description: After 28 days of screening, the subjects were studied in sequential cohorts of 6 subjects each. The study was conducted for 17 days. […] After the dose, subjects continued to fast for additional 4 hours, water was allowed ad libitum with the exception of 1 hour prior and 1-hour post dose. The plasma and CSF samples were analyzed, by validated LC/MS-MS methods. […]
test-readout: Cmax (ng/mL)

structure_smiles=Cc1ccc(C(=O)NNC(=O)c2c(C)cccc2Cl)cc1C#Cc1cnc2ccccc2c1 reported_result=6630

====

Assay: Plasma pharmacokinetics, Parkinson's disease patients, once daily for 14 days
Type: in vivo, human
Conditions: human, 48 mg, PD patients, read-out: Half-Life Lambda Z Geo. Mean (converted)
Protocol: Of these, 44 subjects completed the study. An additional 10 subjects were enrolled in the open label part of the study, of these, one subject was discontinued due to an AE of vomiting. […] Vodobatinib levels in plasma and CSF were determined using a fully validated LC-MS/MS assay with lower limits of quantitation (LLOQ) of 2.5 ng/mL and 0.05 ng/mL, respectively. […]
test-readout: half-life (h)

structure_smiles=Cc1ccc(C(=O)NNC(=O)c2c(C)cccc2Cl)cc1C#Cc1cnc2ccccc2c1 test_readout=half-life reported_result=16.6
